System: Microsporum gallinna
Assay: Antifungal activity by the well-cut diffusion method
Type: cell-based
Conditions: Microsporum, read-out: Inhibition Zone Dimeter (mm) M. gallina
Provide the reported zone of inhibition at 500 µg/mL of each item.
State the answer as a number, implicitly in mm.

The measured zone of inhibition at 500 µg/mL that C=CC(C)(CCC(OO)C(=C)C)OC(C)=O (stereo not shown) [Hydroperoxide 5] showed for Microsporum gallinna is 80.5

Item C=CC(C)(CCC=C(C)C)OC(C)=O (stereo not shown) [Linalyl acetate, 3,7-Dimethyl-1,6-octadien-3-yl acetate, reference compound] ; assay system Microsporum gallinna; zone of inhibition at 500 µg/mL reported as 80

Recorded zone of inhibition at 500 µg/mL for C=CC(C)(CC=CC(C)(C)OO)OC(C)=O (stereo not shown) [Hydroperoxide 6] on Microsporum gallinna was 80

For CC(=O)OC(C)(CCC=C(C)C)C1CO1 (stereo not shown) [Epoxide 4] on Microsporum gallinna, measured zone of inhibition at 500 µg/mL was 65

The reported measurements were obtained from patent US10584106B1.
